# Measurement target: human C5aR(CD88) (Homo sapiens)
# Construct: expressed in transfected cells; host or cells: rat basophilic leukemia cells (RBL)
# Sequence (P21730 1-350): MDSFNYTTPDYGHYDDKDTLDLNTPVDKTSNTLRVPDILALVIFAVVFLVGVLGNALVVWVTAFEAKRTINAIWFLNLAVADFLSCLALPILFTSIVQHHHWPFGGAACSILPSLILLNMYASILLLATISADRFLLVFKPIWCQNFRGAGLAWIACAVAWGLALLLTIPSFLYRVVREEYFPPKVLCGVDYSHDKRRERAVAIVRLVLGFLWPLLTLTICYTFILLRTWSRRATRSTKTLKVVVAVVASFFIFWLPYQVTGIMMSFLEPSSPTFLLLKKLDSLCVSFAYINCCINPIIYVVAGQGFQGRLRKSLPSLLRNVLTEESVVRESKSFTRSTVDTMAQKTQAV
# Protocol text: Determination of the IC50 value in an enzyme release assay (functional assay, antagonistic activity)
# Type: cell-based
# Conditions: antagonistic activity; IC50 group in enzyme release assay, RBL cells expressing human C5aR(CD88); read-out: activity (group)
Non-standard residues stand in square brackets, D forms with d. Residues, ends and D or L forms follow the SMILES beside them. Bta = N[C@@H](Cc1csc2ccccc12)C(=O)O; d(hLeu) = CC(C)CC[C@@H](N)C(=O)O; Cha = N[C@@H](CC1CCCCC1)C(=O)O; dCha = N[C@H](CC1CCCCC1)C(=O)O; Orn = NCCC[C@H](N)C(=O)O; Aze = O=C(O)[C@@H]1CCN1
Attribute measured: IC50

{"Compound": "CC(=O)NCC(=O)N[C@@H](Cc1ccccc1)C(=O)N[C@@H](CCCN)C(=O)N1CC[C@H]1C(=O)N[C@H](CC1CCCCC1)C(=O)N[C@@H](Cc1csc2ccccc12)C(=O)N[C@@H](Cc1ccccc1)C(N)=O [Compound 154, Ac-Gly-Phe-Orn-Aze-cha-Bta-Phe-NH2] (Ac-GF[Orn][Aze][dCha][Bta]F-NH2)", "Measurement target": "human C5aR(CD88) (Homo sapiens)", "IC50": "10 to 20 nM"}

Given CC(=O)N[C@@H](Cc1ccccc1)C(=O)N[C@@H](CCCN)C(=O)N1CCC[C@H]1C(=O)N[C@H](CCC(C)C)C(=O)N[C@@H](Cc1csc2ccccc12)C(=O)N[C@@H](CC1CCCCC1)C(N)=O [Compound 274, Ac-Phe-Orn-Pro-hle-Bta-Cha-NH2] (Ac-F[Orn]P[d(hLeu)][Bta][Cha]-NH2) , state its recorded IC50. 50 to 200 nM
